Tested on: UACC-62 melanoma
Test Name: NCI-60 one-dose screen, 48 h (100 = growth as untreated, 0 = no growth, -100 = all killed)
Details: 10 µM unless noted
About 83,000 compounds went through this panel and 20% of them were active in at least one assay; those are over-represented in the sample as a whole.
Endpoint Label: growth (%)
Write the number in % without appending the unit.

Record excerpt, results attached:
>>> value("O=S(=O)(NCCNc1nccc(-c2c(-c3cccc(F)c3)nc3occn23)n1)c1ccc(C(F)(F)F)cc1")
76.2
>>> value("CC1(C(=O)O)CCC(N)(C(=O)O)C1(C)C (centres undefined)")
107
>>> value("CC1(C)CC(=O)c2c(ccc(C(=O)C[C@@H](N)CO)c2N)O1")
-9.38

Okay, next one:
// Input: O=C1Nc2ccccc2/C1=C/C(=O)c1ccc(N2CCOCC2)cc1 . Output its growth only.
83.2

====

Entries and their growth values follow.
Tested on: HOP-62 NSCLC
Test Name: NCI-60 one-dose screen, 48 h (100 = growth as untreated, 0 = no growth, -100 = all killed)
Details: 10 µM unless noted
This is part of a sample that, as a whole, favours compounds with a hit. Of some 83,000 tested, about 20% had one in any assay. Active and inactive are the calls of the source. How the source made its calls: active means growth percent below 10; inactive means the rest.

// worked examples, growth included
>>> value("Cn1cc(-c2nnc(-c3ccccc3)s2)c2cc(Br)cnc21")
"74.3% (inactive)"
>>> value("COc1ccc2nc3cc(Cl)ccc3c(Nc3ccc(O)cc3)c2c1")
"68.8% (inactive)"
>>> value("CC/C=C(\\C)C(CCC)(CN=O)C(=O)OCC (centres undefined)")
"93% (inactive)"

Return the recorded growth value; entry: Fc1ccc(NC(=S)c2ccccc2)cc1
113% (inactive)

====

System: UACC-257 melanoma
Test Name: NCI-60 one-dose screen, 48 h (100 = growth as untreated, 0 = no growth, -100 = all killed)
Details: 10 µM unless noted
This is part of a sample that, as a whole, favours compounds with a hit. Of some 83,000 tested, about 20% had one in any assay.
Consider the following compounds and their measured growth readings.
All answers are understood in %, so give the number only.

See these solved cases before continuing.
>>> value("CCCCCCCCCCCCCC[n+]1cccc(C(N)=O)c1")
24.3
>>> value("C=CCc1nc2ccccc2s1")
90.4
>>> value("O=C(Nc1ccc(Cl)c(C(F)(F)F)c1)Nc1ccc(-c2cccnc2)cc1N1CCC(CO)CC1")
40.2
>>> value("N#Cc1ccc(-c2ccc(COc3ccc(CC4SC(=O)NC4=O)cc3)cc2)cc1 (stereo not given)")
84.9
>>> value("Cn1cc(-c2noc(-c3cn(C)c4ncc(Br)cc34)n2)c2cc(Cl)ccc21")
99.2

State, in one line, measured growth of CCOC(=O)C1=C(C(=O)c2ccc(Br)cc2)C(c2ccc(Br)cc2)NC(=S)N1 (stereo not given)
109

Retrieve growth measured for CCOC(=O)n1cc(C2=C(c3ccc(OC)c(OC)c3)COC2=O)c2ccccc21 and print it.
91.2

State its growth: COc1cc2c(cc1OCCCN1CCN(CCCOc3cc4c(cc3OC)C(=O)N3C[C@H](F)C[C@H]3C=N4)CC1)N=C[C@@H]1C[C@@H](F)CN1C2=O
20.8

Please report the measured growth for O=C1CN(Cc2ccc(C(=O)NO)cc2)C(=O)[C@@H](Cc2ccccc2)N1
93.2

Indicate its recorded growth; the compound in question is Cc1ccc(NCCN2CCCCC2)c2c(=O)c3ccccc3sc12
-43

====

Test system: SR leukemia
Test Name: NCI-60 one-dose screen, 48 h
Details: 10 µM unless noted
Compounds without any hit were thinned out: in the full panel of roughly 83,000, 20% have a hit. Activity calls are given as the source filed them. Rule for the calls: active = growth percent below 10; inactive = the rest.
API: response.call in 1 (yes) (active), 0 (no) (inactive)

>>> assigned_class("CCOC(=O)Nc1ccc2c(c1)/C(=N\\NC(=S)NC)c1ccccc1-2")
"0 (no)"
>>> assigned_class("CCN(CC)CCCC(C)Nc1c2ccc(C)cc2nc2ccc(OC)cc12 (stereo unspecified)")
"1 (yes)"

Please indicate how the test categorized CC1(C)CC[C@]2(C(=O)OC(=O)[C@]34CCC(C)(C)C[C@@H]3C3=CC[C@@H]5[C@@]6(C)CCC(=O)C(C)(C)[C@@H]6CC[C@@]5(C)[C@]3(C)CC4)CC[C@]3(C)C(=CC[C@@H]4[C@@]5(C)CCC(=O)C(C)(C)[C@@H]5CC[C@]43C)[C@H]2C1 .
0 (no)

Could you kindly confirm the outcome this assay logged for O=C(Nc1cc(-c2cccnc2)nc(NCCCN2CCOCC2)n1)c1cc(Br)cc(C(F)(F)F)c1 ?
1 (yes)

Field: outcome | Entry: O=C(Nc1ccccc1)Nc1ccc(C(=O)/C=C/c2ccc(N3CCCC3)cc2)cc1
0 (no)

What was the test verdict on COc1ccc(C(=O)CSc2nccc(Nc3ccc(C(=O)O)cc3)n2)cc1 ?
0 (no)

Status in this test for Cn1cc(-c2nnc(-c3cn(C)c4ncc(Br)cc34)s2)c2cc(Br)ccc21 ?
0 (no)

Tell me the recorded outcome of this test for CCCCCCSc1ncnc2nc[nH]c12 .
0 (no)

For CC(C)[C@H]1COC(=O)N1[C@@H]1C(=O)N([C@@H](CCC(=O)N2CCN(C3CCCC3)CC2)C(=O)N[C@@H]2CCCc3ccccc32)[C@@H]1/C=C/c1cccc(Cl)c1 , what call appears in the results of this test?
0 (no)

So what was the verdict on O=S(=O)(NCCCNc1nccc(-c2c(-c3cccc(F)c3)nc3occn23)n1)c1cccc2ccccc12 in this test?
0 (no)

# outcome recorded in this test, key = C#C[C@]1(O)CC[C@H]2[C@@H]3CC=C4c5nc(Nc6ncccn6)sc5CC[C@]4(C)[C@H]3CC[C@@]21C
0 (no)

Check the results log: what was the call for CC1=CCc2ccccc21 ?
0 (no)

Can you look up the reported call for Cc1cccc(C[C@H](NC(=O)Nc2ccc(Cl)cc2F)C(=O)N[C@@H]2C(=O)N3C[C@H](O)C[C@H]3C(=O)N3CCN(C)C[C@H]3C(=O)N[C@@H](C)C(=O)N3C[C@H](C)C[C@H]3C(=O)O[C@H]2C)c1 for me?
0 (no)

Please share the test call associated with O=[N+]([O-])c1ccc(O)c(-c2nc3ccccc3s2)c1 .
0 (no)

Which result was noted for this molecule in the test: CC(=O)OC[C@]12CC[C@@H](C(=O)CBr)[C@@H]1[C@H]1CC[C@@H]3[C@@]4(C)CCCNC(C)(C)[C@@H]4CC[C@@]3(C)[C@]1(C)CC2
0 (no)

Identify the outcome logged in this assay for the molecule shown: O=C(N/N=C\c1cc(Cl)ccc1O)N/N=C/c1cc(Cl)ccc1O
0 (no)

====

Test system: SK-MEL-2 melanoma
Test Name: NCI-60 one-dose screen, 48 h
Details: 10 µM unless noted
The panel holds about 83,000 compounds, 20% with a hit somewhere; the sample as a whole holds those more often. Activity calls are given as the source filed them. How the source made its calls: active means growth percent below 10; inactive means the rest.
Entry note: the call must match one of active, inactive

Examples from the recorded data:
>>> assigned_class("Nc1nc(Cl)c2ncn(Cc3cc4c(cc3I)OCO4)c2n1")
"inactive"
>>> assigned_class("CN(C)CCCNc1nc(-c2cccc(C(Cl)(Cl)Cl)c2)nc(C(Cl)(Cl)Cl)n1")
"inactive"
>>> assigned_class("CC(C)OC(=O)Nc1cc(F)c(F)cc1F")
"inactive"
>>> assigned_class("Cc1ccccc1-n1nnc(C(=O)Nc2nc3ccc(F)cc3s2)c1C")
"inactive"
>>> assigned_class("COc1ccc(-c2cc(-c3ccc(Cl)cc3)nc(SCCCCCCC(=O)NO)n2)cc1")
"inactive"
>>> assigned_class("CCCCCCSc1ncnc2nc[nH]c12")
"inactive"
>>> assigned_class("O=C(O)c1ccccc1C(F)(F)F")
"inactive"
>>> assigned_class("O=C(NCCCCCCCNC(=O)OCc1ccc2c(Cl)cc(Cl)c(O)c2n1)OCc1ccc2c(Cl)cc(Cl)c(O)c2n1")
"active"

Answer briefly: the call reported for Cc1ccc(S(=O)(=O)Nc2ccccc2)cc1N in this assay.
inactive

Per the records of this test, what outcome belongs to COc1ccc(CC(C#N)c2ccc(Cl)cc2)cc1 (stereo unspecified) ?
inactive

====

Tested on: MDA-MB-231 breast
Test Name: NCI-60 one-dose screen, 48 h
Details: 10 µM unless noted
Compounds without any hit were thinned out: in the full panel of roughly 83,000, 20% have a hit. The source made the active and inactive calls. The calls were made as follows: active = growth percent below 10; inactive = the rest.
Would you mind answering with one of these outcomes? active, inactive

Past entries and their recorded results:
>>> assigned_class("CC(C)OC(=O)Nc1cc(F)c(F)cc1F")
"inactive"
>>> assigned_class("CC(C)OC(=O)Nc1cc(F)ccc1F")
"inactive"
>>> assigned_class("NC(=S)Cc1ccccc1")
"inactive"
>>> assigned_class("O=C(NCCO)c1cccnc1")
"inactive"
>>> assigned_class("O=C(N/N=C1\\c2ccccc2-c2cccc(C(=O)O)c21)c1ccc(O)cc1")
"inactive"

Returns: the outcome recorded for CC/C=C(\C)C(CCC)(CN=O)C(=O)OCC (stereo not given) in this assay.
inactive

Recorded call for CCN(CC)c1ccc(/C=C/c2ccc3cc(C)ccc3[n+]2CC)cc1 ?
inactive
